# Assay details: Pharmacokinetics of SR13668 in monkeys after i.v. and oral gavage dosing
# Type: in vivo, cynomolgus monkeys (macaca fasicularis)
# Condition summary: male, cynomolgus monkey, whole blood, po, 7.02 mg/kg, whole blood, 84.2 mg/m^2 (7.02 mg/kg) oral gavage, PEG400:Labrasol 1:1 v/v, seventh daily dose, fed
# Description: Four non-naïve male beagle dogs (approximately 3 years of age; Ridglan Farms Inc. Mt. Horeb, Wis.) and four non-naïve male cynomolgus monkeys [cynos (macaca fasicularis); approximately 7 to 8 years of age; Charles River Laboratories, Inc., Houston, Tex.] were used in this study. […] A freshly prepared SR13668 standard curve was analyzed along with samples on each day of analysis. […]
Measured attribute: MRT (h)
The figure you give is taken to be in h; do not add the unit.

Q: May I ask what MRT has been recorded for CCOC(=O)c1ccc2[nH]c3c(OC)c4[nH]c5ccc(C(=O)OCC)cc5c4cc3c2c1 [SR13668] ?
A: 11.5

###

# Assay details: Solubility of SR13668 in various solvents
# Type: physicochemical
# Condition summary: organic solvent or mixture, thermodynamic from solid; DMSO; RT; UV
Measured attribute: solubility (mg/mL)
The figure you give is taken to be in mg/mL; do not add the unit.

Q: May I ask what solubility has been recorded for CCOC(=O)c1ccc2[nH]c3c(OC)c4[nH]c5ccc(C(=O)OCC)cc5c4cc3c2c1 ?
A: 106

###

# Assay details: Pharmacokinetics of SR13668 in monkeys after i.v. and oral gavage dosing
# Type: in vivo, cynomolgus monkeys (macaca fasicularis)
# Condition summary: male, cynomolgus monkey, plasma, po, 7.02 mg/kg, 84.2 mg/m^2 (7.02 mg/kg) oral gavage, Solutol, seventh daily dose, fed
Measured attribute: AUC(0-inf) (ng·h/mL)
The figure you give is taken to be in ng·h/mL; do not add the unit.

Q: May I ask what AUC(0-inf) has been recorded for CCOC(=O)c1ccc2[nH]c3c(OC)c4[nH]c5ccc(C(=O)OCC)cc5c4cc3c2c1 ?
A: 837

###

# Assay details: Pharmacokinetics of SR13668 in monkeys after i.v. and oral gavage dosing
# Type: in vivo, cynomolgus monkeys (macaca fasicularis)
# Condition summary: male, cynomolgus monkey, whole blood, po, 7.02 mg/kg, whole blood, 84.2 mg/m^2 (7.02 mg/kg) oral gavage, PEG400:Labrasol 1:1 v/v, seventh daily dose, fed, read-out: VZ/F
Measured attribute: Vd/F
Note: state the figure and append the unit.

Q: May I ask what Vd/F has been recorded for CCOC(=O)c1ccc2[nH]c3c(OC)c4[nH]c5ccc(C(=O)OCC)cc5c4cc3c2c1 [SR13668] ?
A: 61.4 L/kg

###

# Assay details: Pharmacokinetics of SR13668 in monkeys after i.v. and oral gavage dosing
# Assay type: in vivo, cynomolgus monkeys (macaca fasicularis)
# Condition summary: male, cynomolgus monkey, whole blood, po, 7.02 mg/kg, whole blood, 84.2 mg/m^2 (7.02 mg/kg) oral gavage, PEG400:Labrasol 1:1 v/v, seventh daily dose, fed
Measured attribute: AUC(0-inf) (ng·h/mL)
The figure you give is taken to be in ng·h/mL; do not add the unit.

Q: May I ask what AUC(0-inf) has been recorded for CCOC(=O)c1ccc2[nH]c3c(OC)c4[nH]c5ccc(C(=O)OCC)cc5c4cc3c2c1 ?
A: 1560

###

# Assay details: Solubility of SR13668 in various solvents
# Type: physicochemical
# Condition summary: organic solvent or mixture, thermodynamic from solid; Propylene Glycol; RT; HPLC
Measured attribute: solubility (µg/mL)
The figure you give is taken to be in µg/mL; do not add the unit.

Q: May I ask what solubility has been recorded for CCOC(=O)c1ccc2[nH]c3c(OC)c4[nH]c5ccc(C(=O)OCC)cc5c4cc3c2c1 ?
A: 84
